Hey, just so you know, these numbers are from patent US10988477B2.

- test system: intracellular GCN2 (phosphorylation of the GCN2 substrate eIF2α) (Homo sapiens)
- Sequence (Q9P2K8 whole entry): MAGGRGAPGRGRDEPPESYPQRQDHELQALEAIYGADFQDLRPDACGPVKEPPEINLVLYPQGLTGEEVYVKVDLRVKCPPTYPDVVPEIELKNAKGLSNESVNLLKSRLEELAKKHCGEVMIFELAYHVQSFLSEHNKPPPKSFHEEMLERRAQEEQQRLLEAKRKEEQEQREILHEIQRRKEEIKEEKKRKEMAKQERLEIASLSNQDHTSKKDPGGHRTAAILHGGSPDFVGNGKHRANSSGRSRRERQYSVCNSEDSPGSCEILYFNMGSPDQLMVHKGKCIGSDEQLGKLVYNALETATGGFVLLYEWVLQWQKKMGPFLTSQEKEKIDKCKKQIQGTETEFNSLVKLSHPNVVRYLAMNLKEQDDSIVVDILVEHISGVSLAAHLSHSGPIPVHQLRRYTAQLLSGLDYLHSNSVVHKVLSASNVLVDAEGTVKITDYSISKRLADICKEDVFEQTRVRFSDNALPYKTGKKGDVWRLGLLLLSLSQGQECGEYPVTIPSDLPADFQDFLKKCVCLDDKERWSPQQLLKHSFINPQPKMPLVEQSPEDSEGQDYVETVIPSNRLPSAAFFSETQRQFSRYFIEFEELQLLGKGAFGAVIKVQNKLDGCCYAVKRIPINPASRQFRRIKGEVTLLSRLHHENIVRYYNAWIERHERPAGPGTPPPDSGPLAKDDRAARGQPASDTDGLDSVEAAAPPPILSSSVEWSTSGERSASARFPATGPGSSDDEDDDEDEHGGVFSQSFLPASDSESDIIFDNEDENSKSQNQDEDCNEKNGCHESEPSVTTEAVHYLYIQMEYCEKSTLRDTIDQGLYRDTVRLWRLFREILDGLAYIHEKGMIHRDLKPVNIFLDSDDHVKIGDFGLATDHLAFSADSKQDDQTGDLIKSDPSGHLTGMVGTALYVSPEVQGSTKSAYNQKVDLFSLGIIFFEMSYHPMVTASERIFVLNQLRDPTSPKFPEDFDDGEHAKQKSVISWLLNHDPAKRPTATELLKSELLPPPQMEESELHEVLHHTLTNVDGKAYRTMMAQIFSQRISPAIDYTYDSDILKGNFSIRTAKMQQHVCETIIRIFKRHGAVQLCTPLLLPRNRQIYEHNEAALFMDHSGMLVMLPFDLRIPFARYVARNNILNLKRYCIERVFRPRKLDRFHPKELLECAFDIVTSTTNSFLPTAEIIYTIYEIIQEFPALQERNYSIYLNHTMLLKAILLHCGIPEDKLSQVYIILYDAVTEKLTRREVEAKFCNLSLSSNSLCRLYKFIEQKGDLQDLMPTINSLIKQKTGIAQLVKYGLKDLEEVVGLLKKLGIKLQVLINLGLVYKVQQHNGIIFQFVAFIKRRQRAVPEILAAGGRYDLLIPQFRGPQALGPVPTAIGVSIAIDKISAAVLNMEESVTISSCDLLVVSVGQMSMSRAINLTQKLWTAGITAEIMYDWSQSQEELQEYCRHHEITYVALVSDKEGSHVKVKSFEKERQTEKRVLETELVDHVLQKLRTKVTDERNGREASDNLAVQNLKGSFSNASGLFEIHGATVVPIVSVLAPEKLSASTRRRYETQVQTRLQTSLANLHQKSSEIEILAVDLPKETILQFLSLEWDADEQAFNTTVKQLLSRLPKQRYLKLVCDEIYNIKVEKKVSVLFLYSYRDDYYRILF
- experiment notes: GCN2 cellular inhibition assay (AlphaScreen SureFire P-eIF2α Ser51, borrelidin-treated U2OS cells)
- Type: cell-based
- particulars: compounds of Formula IV; biomarker assay, phosphorylated eIF2α Ser51 in borrelidin-treated U2OS cells
measured parameter: IC50

Record excerpt, results attached:
CC1CN(c2nccc(-c3cnc4cnc(Br)cn34)n2)C(C)C(c2cn[nH]c2)N1 (single isomer, unassigned) [IV-403] :: < 500 nM
CC1CN(c2nccc(-c3cnc4cnc(Br)cn34)n2)C(C)C(c2cn[nH]c2)N1 (single isomer, unassigned) [IV-404] :: 500 to 5000 nM
CC1CCC(C(N)=O)CN1c1ccnc(-c2cnc3cnc(C(F)(F)F)cn23)n1 (stereo not shown) :: 500 to 5000 nM

Look at each compound and report its IC50.
1. FC(F)(F)c1cn2c(-c3nccc(N4CCCC(c5cn[nH]n5)C4)n3)cnc2cn1 (stereo not shown)
2. CC1CN(c2ccnc(-c3cnc4cnc(Cl)cn34)n2)C(C)C(c2cn[nH]c2)N1 (single isomer, unassigned)

## Result
1: < 500 nM; 2: < 500 nM

Parameters: items (list). Returns: IC50 for each item.
1. OCCC1CCCN(c2ccnc(-c3cnc4cnc(C(F)(F)F)cn34)n2)C1 (stereo not shown)
2. CC1CN(c2ccnc(-c3cnc4cnc(Br)cn34)n2)C(C)C(c2c[nH]cn2)N1 (single isomer, unassigned) [IV-376]

## Result
> 5000 nM
500 to 5000 nM

---

- test system: intracellular GCN2 (phosphorylation of the GCN2 substrate eIF2α) (Homo sapiens)
- experiment notes: GCN2 cellular inhibition assay (AlphaScreen SureFire P-eIF2α Ser51, borrelidin-treated U2OS cells)
- Type: cell-based
- particulars: compounds of Formula IV; biomarker assay, phosphorylated eIF2α Ser51 in borrelidin-treated U2OS cells
pIC50: −log10 of the molar value.
I'd appreciate it if you could supply pIC50 values for the items below.

Provide pIC50 values for the following items, in order.
1. N#Cc1ccc(C(=O)N[C@H]2CCCN(c3ccnc(-c4cnc5cnc(C(F)(F)F)cn45)n3)C2)cc1
2. FC(F)(F)c1cn2c(-c3nccc(N4CCC(Cc5cn[nH]c5)C4)n3)cnc2cn1 (centres unmarked)
3. CN1CCN(c2ccnc(-c3cnc4cnc(C(F)F)cn34)n2)CC1C(N)=O (centres unmarked)

## Result
1: < 5.30; 2: 5.30 to 6.30; 3: < 5.30

Could I get pIC50 for every one of these entries?
1. NC(=O)c1cn2c(-c3cccc(N4CCN5C(=O)CCC[C@H]5C4)n3)cnc2cn1
2. C[C@@H]1C[C@H](c2c[nH]nc2F)CN(c2ccnc(-c3cnc4cnc(C(F)(F)F)cn34)n2)C1
3. Cc1nc(C2CCCN(c3ccnc(-c4cnc5cnc(Br)cn45)n3)C2)c[nH]1 (centres unmarked) [IV-355]
4. Clc1cn2c(-c3nccc(N4CCOC(c5cn[nH]c5)C4)n3)cnc2cn1 (centres unmarked)
5. FC(F)c1cn2c(-c3nccc(N4CCC(c5c[nH]cn5)C4)n3)cnc2cn1 (centres unmarked)
6. C[C@H]1CN(c2ccnc(-c3cnc4cnc(C(F)(F)F)cn34)n2)[C@@H](C)[C@@H](c2cn[nH]c2)N1
7. Cc1n[nH]cc1[C@H]1C[C@@H](C)CN(c2nccc(-c3cnc4cnc(C(F)(F)F)cn34)n2)C1
8. CC1NCC(C)N(c2ccnc(-c3cnc4cnc(C(F)(F)F)cn34)n2)C1c1ccc(=O)[nH]c1 (centres unmarked)

## Result
1: 5.30 to 6.30; 2: > 6.30; 3: 5.30 to 6.30; 4: > 6.30; 5: < 5.30; 6: > 6.30; 7: > 6.30; 8: 5.30 to 6.30
